- System: OVCAR-5 complex spheroids with HUVEC/MSC, viability, % test/control
- TEST_SUMMARY: Anticancer human tumor OVCAR-5 cell line growth inhibition [AhR];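 also: spheroids exposed to compounds for 7 days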
- EXPERIMENTAL_CONDITIONS: second compound 3.16 µM; first compound 0.0316 µM; hits give low values
The label is MET for viability, T/C below 80% and NOT MET for viability, T/C equal to or exceeding 80%.

# MOLECULE, CLASS_LABEL
measured = [
    ("CC1COCCN1c1cc(-c2ccnn2C)c2ccnc(-c3ccn[nH]3)c2n1 (configuration not stated) + Cc1cncc(-c2nc(NCCc3c[nH]c4ccccc34)c3ncn(C(C)C)c3n2)c1", "NOT MET"),
    ("CC1COCCN1c1cc(C2(S(C)(=N)=O)CC2)nc(-c2ccnc3[nH]ccc23)n1 (configuration not stated) + CC(CO)NC(=O)c1cc(-c2ccc(Cl)cc2)nn(-c2cnn(C)c2)c1=O", "NOT MET"),
    ("COc1cc(C2c3cc4c(cc3C(OC3OC5COC(C)OC5C(O)C3O)C3COC(=O)C23)OCO4)cc(OC)c1O (configuration not stated) + Cc1ccccc1N=Nc1ccc(NC(=O)c2ccnn2C)c(C)c1", "NOT MET"),
    ("Cn1ncnc1C1c2n[nH]c(=O)c3cc(F)cc(c23)NC1c1ccc(F)cc1 (configuration not stated) + Cc1cncc(-c2nc(NCCc3c[nH]c4ccccc34)c3ncn(C(C)C)c3n2)c1", "NOT MET"),
    ("COc1ccc([C@@H](O)c2cc(-c3ncnc4cc(N5CCOCC5)ccc34)c(F)cc2Cl)nn1 + Cc1cncc(-c2nc(NCCc3c[nH]c4ccccc34)c3ncn(C(C)C)c3n2)c1", "NOT MET"),
    ("CC1COCCN1c1cc(C2(S(C)(=N)=O)CC2)nc(-c2ccnc3[nH]ccc23)n1 (configuration not stated) + Cc1cncc(-c2nc(NCCc3c[nH]c4ccccc34)c3ncn(C(C)C)c3n2)c1", "MET"),
    ("COc1ccc([C@@H](O)c2cc(-c3ncnc4cc(N5CCOCC5)ccc34)c(F)cc2Cl)nn1 + CC(CO)NC(=O)c1cc(-c2ccc(Cl)cc2)nn(-c2cnn(C)c2)c1=O", "NOT MET"),
    ("Nc1ncn(C2CC(O)C(CO)O2)c(=O)n1 (configuration not stated) + Cc1ccccc1N=Nc1ccc(NC(=O)c2ccnn2C)c(C)c1", "NOT MET"),
    ("CC1COCCN1c1cc(C2(S(C)(=N)=O)CC2)nc(-c2ccnc3[nH]ccc23)n1 (configuration not stated) + Cc1ccccc1N=Nc1ccc(NC(=O)c2ccnn2C)c(C)c1", "NOT MET"),
    ("COc1cc(Nc2ncc3c(n2)-c2ccc(Cl)cc2C(c2c(F)cccc2OC)=NC3)ccc1C(=O)O + Cc1cncc(-c2nc(NCCc3c[nH]c4ccccc34)c3ncn(C(C)C)c3n2)c1", "MET"),
    ("Nc1ccn(C2OC(CO)C(O)C2(F)F)c(=O)n1 (configuration not stated) + CC(CO)NC(=O)c1cc(-c2ccc(Cl)cc2)nn(-c2cnn(C)c2)c1=O", "MET"),
    ("NS(=O)(=O)OCC1CC(n2ccc3c(NC4CCc5ccccc54)ncnc32)CC1O (configuration not stated) + Cc1ccccc1N=Nc1ccc(NC(=O)c2ccnn2C)c(C)c1", "MET"),
]
